# credit: patent US9175045B2

Field: 10% serum EC50 (Jurkat cell viability, CellTiter-Glo). Provide a value for each of the binders that follow.
Biological target: human serum proteins (binding ascribed fully to human serum albumin, HSA) (human, UniProt P02768 25-609)
Sequence (P02768 25-609 limits assumed): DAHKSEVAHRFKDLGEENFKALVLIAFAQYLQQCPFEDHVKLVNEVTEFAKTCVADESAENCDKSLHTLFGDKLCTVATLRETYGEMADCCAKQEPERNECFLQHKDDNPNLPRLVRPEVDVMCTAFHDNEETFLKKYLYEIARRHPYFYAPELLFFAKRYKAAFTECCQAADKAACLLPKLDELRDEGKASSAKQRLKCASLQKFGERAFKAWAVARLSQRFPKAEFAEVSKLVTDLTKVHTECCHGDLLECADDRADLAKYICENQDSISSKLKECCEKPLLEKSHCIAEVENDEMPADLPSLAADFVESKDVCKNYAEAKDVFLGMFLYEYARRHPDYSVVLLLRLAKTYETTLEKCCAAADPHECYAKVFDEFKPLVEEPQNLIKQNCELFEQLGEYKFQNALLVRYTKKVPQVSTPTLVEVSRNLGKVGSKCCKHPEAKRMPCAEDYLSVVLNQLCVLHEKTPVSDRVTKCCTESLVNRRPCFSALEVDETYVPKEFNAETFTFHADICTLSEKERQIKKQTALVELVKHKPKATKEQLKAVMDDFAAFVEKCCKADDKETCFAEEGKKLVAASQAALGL
Test: cell-based or functional assay
Bridge positions count the residues as written; N and C are the ends. Square brackets hold non-standard residues; d marks the D form. * marks the point of attachment. S5 = C=CCCC[C@](C)(N)C(=O)O; Nle = CCCC[C@H](N)C(=O)O; Aib = CC(C)(N)C(=O)O; Propionyl = CCC(=O)*

See these solved cases before continuing.
Propionyl-RNI[Aib]RHL[Aib][S5]V[Aib]D[S5]AARSI-NH2 (staple 9-13) [Compound 9 (crosslinked polypeptide derived from human BID BH3)]	20.2 µM
Propionyl-RNIARHLA[S5]V[Aib]D[S5][Nle]DRSI-NH2 (staple 9-13) [Compound 5 (crosslinked polypeptide derived from human BID BH3)]	63 µM
Ac-DAIRNIARHLA[S5]V[Aib]D[S5][Nle]ARSI-NH2 (staple 12-16) [Compound 4 (crosslinked polypeptide derived from human BID BH3)]	73.1 µM

Parameters: items (list). Returns: 10% serum EC50 (Jurkat cell viability, CellTiter-Glo) for each item.
1. Ac-ALRRRI[S5]LCA[S5]HHST-NH2 (staple 7-11, also called hMAML) [Compound 19 (crosslinked polypeptide derived from human MAML peptide sequence)]
2. Propionyl-RNIARHLA[S5]V[Aib]D[S5]FARSI-NH2 (staple 9-13) [Compound 7 (crosslinked polypeptide derived from human BID BH3)]
3. IWIAQALRXIGDXFNAYYARR (N-terminal acetyl (Ac); C-terminal amide (NH2); $ at 9 and 13 (alpha-methyl amino acids joined by an all-carbon eight-carbon crosslinker with a double bond)) [Compound 12 (crosslinked polypeptide derived from human BIM BH3)]
4. Ac-IWIAQQLR[S5]IGD[S5]FNAYYARR-NH2 (staple 9-13) [Compound 11 (crosslinked polypeptide derived from human BIM BH3)]
5. Ac-ERLRRRI[S5]LCR[S5]HHST-NH2 (staple 8-12, also called hMAML) [Compound 17 (crosslinked polypeptide derived from human MAML peptide sequence)]
6. Ac-IWIAQALR[S5]IGN[S5]FNAYYARR-NH2 (staple 9-13) [Compound 16 (crosslinked polypeptide derived from human BIM BH3)]
7. Propionyl-RNIARHL[Aib][S5]V[Aib]D[S5][Nle]DRSI-NH2 (staple 9-13) [Compound 6 (crosslinked polypeptide derived from human BID BH3)]
8. Ac-RWIAQALR[S5]IGN[S5]FNAYYARR-NH2 (staple 9-13) [Compound 15 (crosslinked polypeptide derived from human BIM BH3)]

Result:
1: 57.5 µM; 2: 48.2 µM; 3: 26.5 µM; 4: 37.6 µM; 5: > 100 µM; 6: 9.3 µM; 7: 49.7 µM; 8: 11.5 µM

Task: Quick check: 10% serum EC50 (Jurkat cell viability, CellTiter-Glo) of Propionyl-RNIARHLA[S5]VGD[S5][Nle][Aib]RSI-NH2 (staple 9-13) [Compound 8 (crosslinked polypeptide derived from human BID BH3)] ?
Result: 37.7 µM
